Molecular target: Amyloid-beta(1-42) oligomer binding to heparin (HS-GAG) (Homo sapiens)
Construct: Beta-amyloid (1-42) was purchased from rPeptide (Cat. No. A1163); purchased rPeptide A1163
Sequence (P05067 672-713): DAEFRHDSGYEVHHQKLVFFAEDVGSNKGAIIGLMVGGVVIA
Assay: Inhibition of Amyloid-beta(1-42) oligomer binding to immobilized heparin-BSA (ELISA)
Set-up: species or system porcine
Settings: Abeta(1-42) oligomers, co-incubation on heparin-BSA plates; read-out: Abeta42/Heparin Activity (IC-50)
Procedure: Porcine intestinal mucosa heparin conjugated to Bovine Serum Albumin (Heparin-BSA) was prepared as described (Najjam, S. et al. 1997, Cytokine 12, 1013-1022). […] Bound GBAP was detected by a monoclonal antibody specific for that GBAP, followed by incubation with secondary antibody conjugated to horseradish peroxidase (HRP). […] The Optical Density of the samples was measured at 450 nm using an ELISA plate reader (BioTek Synergy H1). […] IC-50s were calculated using GraphPad Prism software. […]
Counter-ions that a name gives are not always drawn.
measure-name: IC50 (µM)
Provide only the numeric value, understood in µM.

Consider the reported IC50 for these molecules:
{"molecule": "Cc1ncn(-c2ncc(Nc3ncnc4cc(Cl)ccc34)cc2O)c1C [Compound 40]", "tested-on": "Amyloid-beta(1-42) oligomer binding to heparin (HS-GAG) (Homo sapiens)", "units-of-measure": "µM", "numeric-value": 8.65}
{"molecule": "Clc1ccc2c(N/N=C/c3ccc(-n4ccnc4)nc3)ccnc2c1 [Compound 14, hydrochloride]", "tested-on": "Amyloid-beta(1-42) oligomer binding to heparin (HS-GAG) (Homo sapiens)", "units-of-measure": "µM", "numeric-value": 8.14}
{"molecule": "CC(=NNc1ncnc2cc(Cl)ccc12)c1ccnc(-n2cnc(C)c2C)c1 [Compound 28]", "tested-on": "Amyloid-beta(1-42) oligomer binding to heparin (HS-GAG) (Homo sapiens)", "units-of-measure": "µM", "numeric-value": 12.9}
{"molecule": "C/C(=N\\Nc1ncnc2cc(F)ccc12)c1ccc(-n2cnc(C)c2C)nc1 [Compound 21]", "tested-on": "Amyloid-beta(1-42) oligomer binding to heparin (HS-GAG) (Homo sapiens)", "units-of-measure": "µM", "numeric-value": 9.5}

Suppose we examine the molecule C/C(=N\Nc1ncnc2cc(Cl)ccc12)c1ccc(-n2cc(C)nc2C)nc1 [Compound 18] ; what IC50 value has been reported?
13.6

What IC50 value was documented for this molecule, C/C(=N\Nc1ncnc2cc(Cl)ccc12)c1ccc(-n2cc[n+](C)c2)nc1 [Compound 17] ?
11.7

Entry Cc1ncn(-c2ccc(Nc3ncnc4cc(Cl)ccc34)cn2)c1C [Compound 25] has what IC50?
9.9

Item Clc1ccc2c(Nc3ccc(-n4cncn4)nc3)ncnc2c1 [Compound 34] has what recorded IC50?
9.93
